Assay: chemical genetic growth profiling, strain panel (AID 1159580);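 further: tested at 20 µM; growth read once vehicle control cultures reached saturation at 30 °C; 1 = growth at the plate median or of vehicle wells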
Settings: S. cerevisiae deletion strains, growth OD, locus YJR043C, strain POL32
About 2,000 (36%) of roughly 5,500 compounds were called active. Roughly 18% stayed inconclusive and do not appear here. No stated cut-off is given here; in the data, active means normalized growth mostly below about 0.91 (no sharp cut-off); inconclusive means no clear call, values can overlap the other calls; inactive means mostly above about 0.92. Some of the results follow.
Outcomes you can answer with include only these: 1 (active), 0 (inactive)

Worked examples follow.
Assay result, entry CC(C)=CCOc1c2occc2cc2ccc(=O)oc12 — outcome?
1

Assay result, entry COc1cc2ccc(=O)oc2c(O)c1O — outcome?
0

Assay result, entry CCC(=O)Oc1ccc(NC(=S)NCCCO)cc1 — outcome?
0

Next:
Assay result, entry O=c1[nH]c2ccccc2n1C1CCN(CCCC(c2ccc(F)cc2)c2ccc(F)cc2)CC1 — outcome?
0

Assay result, entry COc1ccc2ccc(=O)oc2c1CC=C(C)C — outcome?
1

====

Test: chemical genetic growth profiling, strain panel (AID 1159580)
Conditions: S. cerevisiae deletion strains, growth OD, locus YNL224C, strain SQS1, active compounds read low
In all, about 5,500 compounds went through this assay and about 2,000 (36%) were called active. Another 18% or so got no clear call; they are omitted. Some of the results follow.
outcome_measure: normalized growth
When you answer, write just the number.

Completed entries (count: 4):
Documented normalized growth of Nc1nc2c(nc(Br)n2C2OC3COP(=O)(O)O[C@@H]3C2O)c(=O)[nH]1 (stereo not given in full) : 1.02

Documented normalized growth of CCOC(=O)C1=C(C)NC(C)=C(C(=O)OC)C1c1cccc([N+](=O)[O-])c1 (stereo not given) : 0.979

Documented normalized growth of O=C1OC(=O)C2C3CCC(O3)C12 (stereo not given) : 1.01

Documented normalized growth of C#CCN1C(C)=C(C(=O)OC)C(c2cccc([N+](=O)[O-])c2)C(C(=O)OCC)=C1C (stereo not given) : 1

Next:
Documented normalized growth of O=C(O)CCC/C=C\C[C@@H]1[C@@H](/C=C/[C@H](O)C2Cc3ccccc3C2)[C@@H](F)C[C@@H]1O : 0.969

====

Experiment: chemical genetic growth profiling, strain panel (AID 1159580)
Conditions: S. cerevisiae deletion strains, growth OD, locus YHR129C, strain ARP1, active compounds read low
In all, about 5,500 compounds went through this assay and about 2,000 (36%) were called active. Inconclusive results (about 18%) are left out. This is one part of the list.
outcome_measure: normalized growth
When you answer, write just the number.

Completed entries (count: 4):
Documented normalized growth of Cc1ncc([N+](=O)[O-])n1CCO : 0.994

Documented normalized growth of O=c1n(CCCN2CCN(c3cccc(Cl)c3)CC2)nc2ccccn12 : 0.994

Documented normalized growth of CC1(C)C[C@@H]2C(=O)CC[C@H]3O[C@]3(C)CC[C@H]21 : 1.01

Documented normalized growth of CN1CCN(CCCN2c3ccccc3Sc3ccc(Cl)cc32)CC1 : 0.932

Next:
Documented normalized growth of CN1Cc2c(N)cccc2C(c2ccccc2)C1 (stereo unspecified) : 1.01

Documented normalized growth of Cn1nnnc1SCC1=C(C(=O)O)N2C(=O)C(NC(=O)C(OC=O)c3ccccc3)C2SC1 (stereo unspecified) : 0.998

Documented normalized growth of N#Cc1ccc2c(c1)N(CCCN1CCC(O)CC1)c1ccccc1S2 : 1

Documented normalized growth of C[N+]1(C)C2CC[C@H]1CC(OC(=O)C(O)c1ccccc1)C2 (stereo partly specified) : 1.01

Documented normalized growth of C[C@]12CCC3C(CC[C@H]4C[C@@H](O)CC[C@]34C)C1CCC2=O (stereo partly specified) : 0.766

Documented normalized growth of COc1ccc2[nH]cc(CCNC(C)=O)c2c1 : 1

Documented normalized growth of COc1cc(OC)c(-c2c(OC)cc(OC)cc2OC)c(OC)c1 : 1.01

====

Assay: chemical genetic growth profiling, strain panel (AID 1159580);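 further: tested at 20 µM; growth read once vehicle control cultures reached saturation at 30 °C; 1 = growth at the plate median or of vehicle wells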
Conditions: S. cerevisiae deletion strains, growth OD, locus YPL078C, strain atp4, active compounds read low
Screen size: about 5,500 compounds; about 2,000 (36%) were called active. Not shown: some 18% with an inconclusive outcome. The list shows a part of the results.
Attribute: normalized growth
When you answer, write just the number.

Completed entries (count: 5):
Documented normalized growth of CC1(C)S[C@@H]2[C@H](NC(=O)COc3ccccc3)C(=O)N2[C@H]1C(=O)O : 0.955

Documented normalized growth of CN1CCN(C(c2ccccc2)c2ccccc2)CC1 : 0.974

Documented normalized growth of Nc1ncnc2nc[nH]c12 : 0.983

Documented normalized growth of CC(=O)OC1CCC2C3CCc4cc(O)ccc4C3CCC12C (centres undefined) : 0.91

Documented normalized growth of N#C/C(=C\c1ccc(O)cc1)C(=O)O : 0.971

Next:
Documented normalized growth of CC(C(=O)O)c1ccc(N2Cc3ccccc3C2=O)cc1 (centres undefined) : 0.984

Documented normalized growth of CC(C)=CCOc1cc2oc(=O)ccc2cc1O : 0.962

Documented normalized growth of O=C(/C=C/C(=O)Oc1ccccc1C(=O)O)Oc1ccccc1C(=O)O : 0.984

Documented normalized growth of C[C@]12CCC3c4ccc(O)cc4CCC3C1CC[C@@H]2OC(=O)CCC1CCCC1 (some centres undefined) : 1.04

Documented normalized growth of CC(C)=CCC1=C(O)c2ccccc2C(=O)C1=O : 0.678

Documented normalized growth of c1coc(CNc2ncnc3nc[nH]c23)c1 : 1.01

Documented normalized growth of CC(=O)OCC(=O)[C@@]1(O)CCC2C3CCC4=CC(=O)CC[C@]4(C)[C@@]3(F)[C@@H](O)C[C@@]21C (some centres undefined) : 1.02

Documented normalized growth of CCC(=O)O[C@H]1CCC2C3CCc4cc(O)ccc4C3CC[C@@]21C (some centres undefined) : 0.992

Documented normalized growth of O=c1[nH]cnc2nc[nH]c12 : 1.02

Documented normalized growth of CC(C)=CCC/C(C)=C/COc1ccc2ccc(=O)oc2c1 : 0.983

Documented normalized growth of COc1cc2ccc(=O)oc2c(OC)c1OC : 0.966

Documented normalized growth of COc1ccc2c(c1)[nH]c1c(C)nccc12 : 0.995

Documented normalized growth of c1ccc2c(c1)[nH]c1cnccc12 : 1

Documented normalized growth of CCNc1nc(Cl)nc(NC(C)C)n1 : 0.977

Documented normalized growth of CCCCC(=O)O[C@H]1CCC2C3CCc4cc(O)ccc4C3CC[C@@]21C (some centres undefined) : 1.03

Documented normalized growth of CCCCC(=O)N(Cc1ccc(-c2ccccc2-c2nn[nH]n2)cc1)[C@H](C(=O)O)C(C)C : 0.989

Documented normalized growth of CC(=O)N[C@@H](CC(=O)O)C(=O)O : 1.02

Documented normalized growth of Fc1ccc(C(c2ccc(F)cc2)N2CCN(C/C=C/c3ccccc3)CC2)cc1 : 0.316

Documented normalized growth of O=c1ccc2cc(O[C@@H]3O[C@H](CO)[C@@H](O)[C@H](O)[C@H]3O)c(O)cc2o1 : 0.962

====

Assay: chemical genetic growth profiling, strain panel (AID 1159580);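 further: tested at 20 µM; growth read once vehicle control cultures reached saturation at 30 °C; 1 = growth at the plate median or of vehicle wells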
Details: S. cerevisiae deletion strains, growth OD, locus YDL134C, strain PPH21, active compounds read low
The whole screen tested about 5,500 compounds, of which about 2,000 (36%) were called active. Inconclusive results (about 18%) are left out. The list shows a part of the results.
Attribute: normalized growth
When you answer, write just the number.

Documented normalized growth of O=c1nc(-c2ccccc2)nc(-c2ccccc2)[nH]1 : 0.955

Documented normalized growth of O=c1[nH]cnc2nc[nH]c12 : 1

Documented normalized growth of Cc1ncc([N+](=O)[O-])n1CCO : 0.978

Next:
Documented normalized growth of CCc1cccc(C)c1NC(=O)N1CCN(C(=O)OC(C)(C)C)CC1 : 1.01

Documented normalized growth of CCCCCc1ccc(S(=O)(=O)Nc2cccnc2Oc2ccc(Cl)cc2)cc1 : 0.994

Documented normalized growth of Cc1cc(N=CNO)c2ccccc2n1 : 0.997

Documented normalized growth of C[C@H]1C(=O)O[C@@H]2CCN3CC=C(COC(=O)[C@](C)(O)[C@]1(C)O)[C@H]23 : 0.968

Documented normalized growth of Cc1cc(C)c(C(=O)NCCNc2ccc(C(F)(F)F)cc2[N+](=O)[O-])c(C)c1 : 0.971

Documented normalized growth of CN1CCN(C(c2ccccc2)c2ccccc2)CC1 : 1.01

====

Assay: chemical genetic growth profiling, strain panel (AID 1159580);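 further: tested at 20 µM; growth read once vehicle control cultures reached saturation at 30 °C; 1 = growth at the plate median or of vehicle wells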
Details: S. cerevisiae deletion strains, growth OD, locus YOR001W, strain rrp6, active compounds read low
In all, about 5,500 compounds went through this assay and about 2,000 (36%) were called active. Roughly 18% stayed inconclusive and do not appear here. The list shows a part of the results.
Response field label takes Y when normalized growth is strictly below 1 and N in all other cases.

Worked examples follow.
Could you please tell me whether normalized growth recorded for O=C(CCCN1CC=C(n2c(=O)[nH]c3ccccc32)CC1)c1ccc(F)cc1 is less than 1?
Y

Could you please tell me whether normalized growth recorded for O=c1[nH]c2ccccc2n1CCCN1CCC(n2c(=O)[nH]c3cc(Cl)ccc32)CC1 is less than 1?
Y

Next:
Could you please tell me whether normalized growth recorded for COc1cc(OC)c(C(C)=O)c(O)c1C is less than 1?
Y

Could you please tell me whether normalized growth recorded for Fc1ccc(C(c2ccc(F)cc2)N2CCN(C/C=C/c3ccccc3)CC2)cc1 is less than 1?
Y

Could you please tell me whether normalized growth recorded for O=C(O)c1cccc(O)c1O is less than 1?
N
